assay: Fraction unbound in Beagle dog brain homogenates at 1 uM after 6 hrs by equilibrium dialysis method; conditions: brain homogenate
Some molecules, each annotated with its measured fraction unbound at 6 h, 1 µM.

Study these solved cases before continuing.
O=c1n(CCCN2CCN(c3cccc(Cl)c3)CC2)nc2ccccn12 [TRAZODONE]	0.066
CN1CCCC(n2nc(Cc3ccc(Cl)cc3)c3ccccc3c2=O)CC1 (stereo not given) [AZELASTINE]	0.011
COc1ccc2c(c1)c(CC(=O)O)c(C)n2C(=O)c1ccc(Cl)cc1 [INDOMETHACIN]	0.035
CCCCN1CCCCC1C(=O)Nc1c(C)cccc1C (stereo not given) [BUPIVACAINE]	0.211

Let's switch to this molecule now.
Consider the molecule CNCCCN1c2ccccc2CCc2ccccc21 [DESIPRAMINE] and give its recorded fraction unbound at 6 h, 1 µM.
0.017

* * *

assay: Fraction unbound in human occipital cortex at 1 uM after 6 hrs by equilibrium dialysis method
metric: fraction unbound at 6 h, 1 µM
No unit in the answer, please; the number alone is enough.

Study these solved cases before continuing.
CC(C)(C)NCC(O)COc1ccc(NC(=O)NC2CCCCC2)cc1 (stereo unspecified)	0.137
CCCNC(=O)NS(=O)(=O)c1ccc(Cl)cc1 [CHLORPROPAMIDE]	0.583
NC(=O)N1c2ccccc2C=Cc2ccccc21 [CARBAMAZEPINE]	0.171
CNCCC=C1c2ccccc2CCc2ccccc21	0.006
CN(C)CCCN1c2ccccc2CCc2ccc(Cl)cc21	0.004

Let's switch to this compound now.
Consider the compound NC1CCN(c2c(F)cc3c(=O)c(C(=O)O)cn(C4CC4)c3c2Cl)C1 (stereo unspecified) and give its recorded fraction unbound at 6 h, 1 µM.
0.157

* * *

assay: Fraction unbound in Wistar Han rat brain homogenates at 1 uM after 6 hrs by equilibrium dialysis method; details: brain homogenate
metric: fraction unbound at 6 h, 1 µM

CCN(CC)C(=O)/C(C#N)=C/c1cc(O)c(O)c([N+](=O)[O-])c1 [ENTACAPONE]	0.021
CC(NC(C)(C)C)C(=O)c1cccc(Cl)c1 (stereo not given) [BUPROPION]	0.132
COc1ccc2c(c1)c(CC(=O)O)c(C)n2C(=O)c1ccc(Cl)cc1 [INDOMETHACIN]	0.044

Consider the compound CN(C)CCCC1(c2ccc(F)cc2)OCc2cc(C#N)ccc21 (stereo not given) [CITALOPRAM] and give its recorded fraction unbound at 6 h, 1 µM.
0.05

Consider the compound NS(=O)(=O)Cc1noc2ccccc12 [ZONISAMIDE] and give its recorded fraction unbound at 6 h, 1 µM.
0.327

Consider the compound O=C(O[C@H]1CN2CCC1CC2)N1CCc2ccccc2[C@@H]1c1ccccc1 [SOLIFENACIN] and give its recorded fraction unbound at 6 h, 1 µM.
0.019

Consider the compound CN1[C@@H]2CC[C@H]1C[C@@H](OC(=O)c1c[nH]c3ccccc13)C2 [TROPISETRON] and give its recorded fraction unbound at 6 h, 1 µM.
0.056

Consider the compound O=c1n(CCCN2CCN(c3cccc(Cl)c3)CC2)nc2ccccn12 [TRAZODONE] and give its recorded fraction unbound at 6 h, 1 µM.
0.085

Consider the compound CN(C)CCCN1c2ccccc2Sc2ccc(Cl)cc21 [CHLORPROMAZINE] and give its recorded fraction unbound at 6 h, 1 µM.
0.003

Consider the compound O=C1NC(=O)C(c2ccccc2)(c2ccccc2)N1 [PHENYTOIN] and give its recorded fraction unbound at 6 h, 1 µM.
0.1
